- Assay overview: chemical genetic growth profiling, strain panel (AID 1159580);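 note: tested at 20 µM; growth read once vehicle control cultures reached saturation at 30 °C; 1 = growth at the plate median or of vehicle wells; lower values mean less growth of the strain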
- Setup conditions: S. cerevisiae deletion strains, growth OD, locus YNL248C, strain rpa49
The whole screen tested about 5,500 compounds, of which about 2,000 (36%) were called active. Inconclusive results (about 18%) are left out. Cut-off read from the data, not from the text of the source: active = normalized growth mostly below about 0.91 (no sharp cut-off); inconclusive = no clear call, values can overlap the other calls; inactive = mostly above about 0.92. The list shows a part of the results.
Give your call using only these classes: class 1 for active, class 0 for inactive

Solved entries:
CC1(C)C(=O)C=C[C@@]2(C)C1=C(O)C(=O)[C@]1(C)C2CC[C@@]2(C)[C@H](c3ccoc3)C[C@H]3O[C@]321 (some centres not stated) : class 0
C=C(C)[C@H]1CC=C(C(=O)O)CC1 : class 1
O=C(O)C1=CCNCC1 : class 0

QUERY: Short answer needed: outcome of this test for CCC(Cc1c(I)cc(I)c(N)c1I)C(=O)O (configuration not stated) ?
RESULT: class 0

QUERY: State the result this test recorded for "C1CNCCN1" .
RESULT: class 0

QUERY: Write down the call the test reported for this compound. Item: "CC(C)=CCC/C(C)=C/CC/C(C)=C/CC/C(C)=C/CC/C(C)=C/CC/C(C)=C/CC/C(C)=C/CC/C(C)=C/CC/C(C)=C/CO"
RESULT: class 1

QUERY: Look up the recorded call for CC(C)=CCC[C@](C)(O)C1CC=C(C)CC1 (some centres not stated) in this test.
RESULT: class 0

QUERY: For "COc1cc(OC)c2c(=O)c(-c3ccccc3)c(C)oc2c1OC" , which call appears in the assay record?
RESULT: class 0

QUERY: // return assay outcome for "Cc1c(Nc2ncccc2C(=O)O)cccc1C(F)(F)F"
RESULT: class 0

QUERY: How was "CC(=O)NCCCCCC(=O)O" classified in this test?
RESULT: class 0

QUERY: What did this assay record as the result for "CCOC(=O)c1oc2c(OC)c(O)cc(O)c2c(=O)c1-c1cc(OC)c(OC)c(OC)c1" ?
RESULT: class 0

QUERY: Short answer needed: outcome of this test for C=CC(C)(O)CC/C=C(\C)CCC=C(C)C (configuration not stated) ?
RESULT: class 1
